Value source: BindingDB's records for PubMed 8450829

Readings of log10 of Ki for the listed compounds
target of assay: 5-hydroxytryptamine receptor 5B (Mus musculus, UniProt P31387)
Sequence (P31387 whole entry): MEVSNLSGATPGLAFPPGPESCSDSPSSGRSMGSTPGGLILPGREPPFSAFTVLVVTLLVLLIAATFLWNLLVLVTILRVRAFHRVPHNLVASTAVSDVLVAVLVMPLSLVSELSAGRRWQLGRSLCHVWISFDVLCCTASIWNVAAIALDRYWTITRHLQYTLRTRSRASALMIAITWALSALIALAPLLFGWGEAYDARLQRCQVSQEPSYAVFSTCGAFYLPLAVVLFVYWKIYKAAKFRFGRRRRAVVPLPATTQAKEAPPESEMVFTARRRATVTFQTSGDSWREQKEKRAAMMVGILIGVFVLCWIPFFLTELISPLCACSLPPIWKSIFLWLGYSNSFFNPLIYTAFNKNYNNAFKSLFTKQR
endpoint: log10 of Ki (log10 of the value in nM)

{"columns": ["compound", "endpoint", "number"],
 "data": [
  ["CNS(=O)(=O)Cc1ccc2[nH]cc(CCN(C)C)c2c1 [Sumax]", "log10 of Ki", 3.90],
  ["NCCc1c[nH]c2ccc(O)cc12 [[3H]-5-HT]", "log10 of Ki", 2.40],
  ["NCCc1c[nH]c2ccc(C(N)=O)cc12 [[3H]-5-carboxamidotryptamine]", "log10 of Ki", 1.60],
  ["COc1ccc2[nH]cc(C3=CCNCC3)c2c1", "log10 of Ki", 2.60],
  ["CN(C)CCc1c[nH]c2ccc(O)cc12 [3-[2-(dimethylamino)ethyl]indol-5-ol]", "log10 of Ki", 3.20],
  ["CN1C[C@H](C(=O)N[C@]2(C)O[C@@]3(O)[C@@H]4CCCN4C(=O)[C@H](Cc4ccccc4)N3C2=O)C=C2c3cccc4[nH]cc(c34)C[C@H]21", "log10 of Ki", 0.50],
  ["CC[C@@H](CO)NC(=O)[C@@H]1C=C2c3cccc4c3c(cn4C)C[C@H]2N(C)C1", "log10 of Ki", 2.10],
  ["CCCN(CCC)C1CCc2cccc(O)c2C1 (stereo unspecified)", "log10 of Ki", 2.60],
  ["FC(F)(F)c1cccc(N2CCNCC2)c1 [TFMPP]", "log10 of Ki", 3.60]
]}
